# target_under_test: T1, 人绒毛膜促性腺激素(HCG) (human, UniProt P0DN86 21-165)
# T1 construct: Alpha/beta heterodimer coated on ELISA plates; The source of the HCG preparation is lost from the text (gap after 'HCG |'); also called HCG抗原
# test_summary: ELISA, HCG coated at 2 μg/ml, VHH detected with anti-6xHis-HRP, 4-parameter fit
Rule: measured EC50 below 0.01 µg/mL gets 1.0; anything equal to or greater than 0.01 µg/mL gets 0.0.

INSERT INTO assay_data (binder, cat) VALUES
  ('SEQ ID NO 4 (VHH, Expressed in E. coli, nickel column purified; Only the CDRs are printed; also called 蛋白4) VHH: QVRLVESGGGLVQPGGSLRLSCTASGGTFDRYNVAWFRQAPGEEREAVASIMWSGDNTYYANSVKGRFTISRDNAKNTVYLQMNSLKPEDTAVYYCAARIQEQGWWDYWGQGTQVTVSS', 1.0),
  ('SEQ ID NO 7 (VHH, Expressed in E. coli, nickel column purified; Only the CDRs are printed; also called 蛋白7) VHH: QVQLVESGGGLVQAGGSLRLSCVASGRTFSSYDMGWFRQAPGEEREAVAAINWSGGSTYYADSVKGRFTISSDNAKNTVYLQMNNLKPEDTAVYYCAARQVPGWWDYWGQGTQVTVSS', 0.0),
  ('SEQ ID NO 3 (VHH, Expressed in E. coli, nickel column purified; Only the CDRs are printed; also called 蛋白3) VHH: QVQVAESGGGLVQSGGSMNLSCTASGNLFSVDAMGWFRQAPGEEREAVAAIMWSGDSTYYANAVKGRFTISRDNAKNTVYLQMNSLKPEDTAVYYCAARLQEEGWWDYWGQGTQVTVSS', 0.0),
  ('SEQ ID NO 6 (VHH, Expressed in E. coli, nickel column purified; Only the CDRs are printed; also called 蛋白6) VHH: QVQVVESGGGLVQPGGSLRLSCAASGRTVSSHAMGWFRQAPGEEREAVAAIMWSGDSTYYANAVKGRFTISRDNAKNTVYLQMNSLKPEDTAVYYCAARLQEEGWWDYWGQGTQVTVSS', 0.0),
  ('SEQ ID NO 5 (VHH, Expressed in E. coli, nickel column purified; Only the CDRs are printed; also called 蛋白5) VHH: QVQLVESGGGLAQAGGSLRLSCAASGRTASGYAMGWFRQAPGKEREAVAAIMWSGGSTYYADSVKGRFTISRDNAKNTVYLQMNSLKTEDTAVYYCAARTDGSGWWDYWGQGTQVTVSS', 1.0);
